Answer each item with its documented Kd.
- tgt: Steroid C26-monooxygenase (Mycobacterium tuberculosis (strain CDC 1551 / Oshkosh), UniProt P9WPL4)
- measurement.notes: Binding Assay
Express your answer in µM, writing the number without its unit.

// fetch Kd given entry Clc1ccc(COC(Cn2ccnc2)c2ccc(Cl)cc2Cl)cc1 (centres undefined)
4.6

// fetch Kd given entry `OC(Cn1cncn1)(Cn1cncn1)c1ccc(F)cc1F`
860

// fetch Kd given entry `Clc1ccccc1C(c1ccccc1)(c1ccccc1)n1ccnc1`
3.8

// fetch Kd given entry `c1ccc(-c2c[nH]cn2)cc1`
12

###

- tgt: Steroid C26-monooxygenase (Mycobacterium tuberculosis (strain CDC 1551 / Oshkosh))
- Sequence (P9WPL4 whole entry): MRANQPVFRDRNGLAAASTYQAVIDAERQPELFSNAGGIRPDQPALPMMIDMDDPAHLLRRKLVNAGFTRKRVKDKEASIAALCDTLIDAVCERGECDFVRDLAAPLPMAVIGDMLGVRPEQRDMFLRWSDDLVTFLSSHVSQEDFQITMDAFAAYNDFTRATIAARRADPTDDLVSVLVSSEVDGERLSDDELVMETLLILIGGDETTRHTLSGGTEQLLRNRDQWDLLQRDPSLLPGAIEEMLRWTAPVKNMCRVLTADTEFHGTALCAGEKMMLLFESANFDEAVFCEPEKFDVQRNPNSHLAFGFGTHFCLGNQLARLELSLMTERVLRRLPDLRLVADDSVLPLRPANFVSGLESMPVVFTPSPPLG
- measurement.notes: Binding Assay
readout.label: Kd (nM)
Express your answer in nM, writing the number without its unit.

// fetch Kd given entry `CC(C)CCC[C@@H](C)[C@H]1CC[C@H]2[C@@H]3CCC4=CC(=O)CC[C@]4(C)[C@H]3CC[C@]12C`
360

// fetch Kd given entry `CC(C)CCC[C@@H](C)[C@H]1CC[C@H]2[C@@H]3CC=C4C[C@@H](O)CC[C@]4(C)[C@H]3CC[C@]12C`
340

// fetch Kd given entry `CC(=O)N1CCN(c2ccc(OC[C@H]3CO[C@](Cn4ccnc4)(c4ccc(Cl)cc4Cl)O3)cc2)CC1`
21000

// fetch Kd given entry `Clc1ccc(CO[C@@H](Cn2ccnc2)c2ccc(Cl)cc2Cl)c(Cl)c1`
4000

###

- tgt: Cytochrome P450 144 (Mycobacterium tuberculosis (strain CDC 1551 / Oshkosh))
- Sequence (P9WPL0 whole entry): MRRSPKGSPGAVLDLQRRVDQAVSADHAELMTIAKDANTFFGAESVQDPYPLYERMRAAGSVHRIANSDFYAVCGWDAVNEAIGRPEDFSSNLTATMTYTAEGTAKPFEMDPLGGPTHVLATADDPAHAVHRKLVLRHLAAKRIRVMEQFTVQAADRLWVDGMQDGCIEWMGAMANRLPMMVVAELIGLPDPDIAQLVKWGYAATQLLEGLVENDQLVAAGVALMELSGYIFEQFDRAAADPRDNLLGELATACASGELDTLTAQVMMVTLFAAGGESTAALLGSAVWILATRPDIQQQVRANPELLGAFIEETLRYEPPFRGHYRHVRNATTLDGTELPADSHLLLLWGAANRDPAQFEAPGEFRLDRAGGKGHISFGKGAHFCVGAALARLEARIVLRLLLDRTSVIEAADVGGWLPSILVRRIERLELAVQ
- measurement.notes: Binding Assay
Answer each item with its documented Kd.
Express your answer in nM, writing the number without its unit.

// fetch Kd given entry Clc1ccc(COC(Cn2ccnc2)c2ccc(Cl)cc2Cl)cc1 (stereo not given)
780

// fetch Kd given entry `Clc1ccc(CO[C@@H](Cn2ccnc2)c2ccc(Cl)cc2Cl)c(Cl)c1`
980

// fetch Kd given entry `c1ccc(-c2c[nH]cn2)cc1`
280000

// fetch Kd given entry `CC(=O)N1CCN(c2ccc(OC[C@H]3CO[C@](Cn4ccnc4)(c4ccc(Cl)cc4Cl)O3)cc2)CC1`
134000

// fetch Kd given entry `Clc1ccccc1C(c1ccccc1)(c1ccccc1)n1ccnc1`
370

###

- tgt: Steroid C26-monooxygenase (Mycobacterium tuberculosis (strain CDC 1551 / Oshkosh), UniProt P9WPP0)
- Sequence (P9WPP0 whole entry): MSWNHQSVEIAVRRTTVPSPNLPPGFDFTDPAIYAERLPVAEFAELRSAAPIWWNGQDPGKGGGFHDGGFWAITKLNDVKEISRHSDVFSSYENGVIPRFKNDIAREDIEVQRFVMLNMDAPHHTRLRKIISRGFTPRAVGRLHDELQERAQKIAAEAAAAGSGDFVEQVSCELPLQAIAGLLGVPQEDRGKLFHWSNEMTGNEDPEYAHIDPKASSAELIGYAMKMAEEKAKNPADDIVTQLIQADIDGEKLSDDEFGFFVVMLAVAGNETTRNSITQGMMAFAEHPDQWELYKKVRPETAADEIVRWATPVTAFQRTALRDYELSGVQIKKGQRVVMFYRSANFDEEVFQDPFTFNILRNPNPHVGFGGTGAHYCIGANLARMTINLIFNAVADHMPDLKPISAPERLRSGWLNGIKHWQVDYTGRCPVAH
- measurement.notes: Binding Assay
readout.label: pKd
// pKd is dimensionless: -log10 of concentration (M)

// fetch pKd given entry CCC(C)n1ncn(-c2ccc(N3CCN(c4ccc(OC[C@H]5CO[C@](Cn6cncn6)(c6ccc(Cl)cc6Cl)O5)cc4)CC3)cc2)c1=O (stereo partly drawn)
4.52

// fetch pKd given entry `CC(=O)N1CCN(c2ccc(OC[C@H]3CO[C@](Cn4ccnc4)(c4ccc(Cl)cc4Cl)O3)cc2)CC1`
4.57

// fetch pKd given entry Clc1ccc(COC(Cn2ccnc2)c2ccc(Cl)cc2Cl)cc1 (stereo not drawn)
4.93

Taken from BindingDB's records for doi:10.1074/jbc.M110.164293.
